# target entity: Luciferin 4-monooxygenase (Photinus pyralis) (UniProt P08659)
# Sequence (P08659 whole entry, looked up): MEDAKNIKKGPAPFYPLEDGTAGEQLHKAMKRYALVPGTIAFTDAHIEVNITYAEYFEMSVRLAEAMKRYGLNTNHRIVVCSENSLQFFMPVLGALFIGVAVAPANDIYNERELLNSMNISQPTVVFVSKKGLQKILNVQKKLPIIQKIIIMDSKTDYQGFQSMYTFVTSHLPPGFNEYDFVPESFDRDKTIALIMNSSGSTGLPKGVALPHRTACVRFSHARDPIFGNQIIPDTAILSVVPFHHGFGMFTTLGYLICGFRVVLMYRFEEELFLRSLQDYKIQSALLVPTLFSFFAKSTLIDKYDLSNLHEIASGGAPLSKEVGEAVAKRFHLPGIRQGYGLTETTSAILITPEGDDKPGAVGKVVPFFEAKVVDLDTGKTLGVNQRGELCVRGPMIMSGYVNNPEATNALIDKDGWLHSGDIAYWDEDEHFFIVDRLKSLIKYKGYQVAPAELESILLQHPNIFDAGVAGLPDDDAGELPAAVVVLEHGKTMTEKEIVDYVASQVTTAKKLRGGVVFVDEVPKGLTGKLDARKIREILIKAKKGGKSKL
# protocol description: qHTS profiling assay for firefly luciferase inhibitor/activator using purifed enzyme and Km concentrations of substrates (counterscreen for miR-21 project); further: nearly all actives have a fitted effect of over 55% in size
# recorded conditions: purified FLuc, luminescence inhibition; series mostly up to 57.5 µM
About 25,000 (6.9%) of roughly 360,000 compounds were called active. Inconclusive results (about 9%) are left out. The call rests on the fitted dose curve; in most records, active means well fitted inhibition curve with a large enough effect; inconclusive means small, poorly fitted or top-dose-only effect; inactive means flat fitted curve, though single readings scatter. Only a selection was taken, and actives are over-represented in it overall.
Your response should consist of one outcome taken from yes (1) = active, no (0) = inactive

Take a look at these entries with their results.
[[record]]
compound = "CN(C(=O)CCN1C(=O)/C(=C/c2ccccc2F)SC1=S)C1CCS(=O)(=O)C1 (stereo not given)"
qualitative_label = "yes (1)"

[[record]]
compound = "Cc1ccc(C)c(S(=O)(=O)n2nc(C)c(S(=O)(=O)N3CCC(C)CC3)c2C)c1"
qualitative_label = "no (0)"

[[record]]
compound = "N#Cc1nc(/C=C/c2ccc(F)cc2)oc1NCc1ccc(F)cc1"
qualitative_label = "no (0)"

[[record]]
compound = "N#Cc1nc(Cc2cccc3ccccc23)oc1NCc1ccc2c(c1)OCO2"
qualitative_label = "no (0)"


Entry CN(C(=O)CN1C(=O)S/C(=C\c2ccccc2F)C1=O)C1CCS(=O)(=O)C1 (stereo not given) : call = ? no (0)

// same read-out, input: CCOC(=O)c1cc(-c2ccccc2C)n(Cc2cc(C)no2)n1 no (0)

Query COc1ccc(/C=C(\C#N)C(=O)OCC(=O)N(C)C2CCS(=O)(=O)C2)cc1 (stereo not given) next no (0)

Can you handle Cc1ccc(-c2nnc3c4ccccc4c(C)nn23)cc1NC(=O)c1cccc(Br)c1 next? no (0)

And O=C(O)CCC(=O)Nc1ccc(OCC2CCCO2)cc1 (stereo not given) ? no (0)

Same for O=C(O)CCC(=O)Nc1ccc(N2CCOCC2)cc1 no (0)

* * *

# target entity: Luciferin 4-monooxygenase (Photinus pyralis) (UniProt P08659)
# protocol description: qHTS profiling assay for firefly luciferase inhibitor/activator using purifed enzyme and Km concentrations of substrates (counterscreen for miR-21 project); further: nearly all actives have a fitted effect of over 55% in size
# recorded conditions: purified FLuc, luminescence inhibition; series mostly up to 57.5 µM
Hit rate of the full screen: of about 360,000 compounds, about 25,000 (6.9%) were called active. Roughly 9% stayed inconclusive and do not appear here. Calls follow the shape of the dose curve; as a rule, active = well fitted inhibition curve with a large enough effect; inconclusive = small, poorly fitted or top-dose-only effect; inactive = flat fitted curve, though single readings scatter. The sample as a whole holds a higher share of actives than the screen did.
Field 'call' accepts YES for active, NO for inactive

[[record]]
molecule = "COc1ccc(N2C(=O)CCC(C(=O)Nc3ccccn3)C2c2ccc(OC)c(OC)c2)cc1 (configuration not stated)"
qualitative_label = "NO"

[[record]]
molecule = "Cc1ccccc1CNC(=O)CCc1cn(Cc2ccccc2C)c2ccccc12"
qualitative_label = "NO"

[[record]]
molecule = "CCCOc1ccc(NC(=O)C2OC3OC(C)(C)OC3C3OC(C)(C)OC23)cc1 (configuration not stated)"
qualitative_label = "NO"

[[record]]
molecule = "O=C(Nc1nnc(CCc2ccccc2)s1)C1CCCO1 (configuration not stated)"
qualitative_label = "NO"

[[record]]
molecule = "Cc1nc2nc(SCC(=O)NC3CCC(C)CC3)nn2c(C)c1Cc1ccccc1Cl (configuration not stated)"
qualitative_label = "NO"


Lab log entry: Cc1cc(C)cc(NC(=O)CSc2oc(-c3ccccc3)nc2S(=O)(=O)c2ccc(Cl)cc2)c1 — outcome as called in the assay? NO

What do you get for Cc1ccc2c(c1)-c1c(cnn1CC(=O)Nc1ccccc1C#N)CO2 ? NO

Subsequent entry: COc1cc(Cl)c(NC(=O)C(NS(=O)(=O)c2cccs2)C(C)C)c(OC)c1 (configuration not stated) NO

And what about the molecule N#Cc1cccc(NC(=O)C2CCCN(C(=O)c3ccc(Cl)cc3)C2)c1 (configuration not stated) ? NO

Query CCOc1ccc(NC(=O)C2CCCN(C(=O)Nc3ccccc3)C2)cc1 (configuration not stated) next NO

// query: COC1=C/C(=C/c2c(N)n3nc(CC(=O)N4CCOCC4)sc3nc2=O)C=CC1=O NO

For CCOc1ccc(N/C=C/C(=O)c2ccccc2)cc1 then? YES

Repeat with Cc1cc(C)cc(OCC(=O)Nc2c(C(=O)c3ccccc3)oc3ccccc23)c1 NO

Can you check Cc1cc(NC(=O)CN2CCCCC2C)nc2c1c(=O)oc1ccccc12 (configuration not stated) next? NO

Repeat for the following molecule: CCCOc1ccc(N/C=C/C(=O)C(C)(C)C)cc1 YES

Same question, CC(C)(C)NS(=O)(=O)c1ccc(NC(=O)C2CCCO2)cc1 (configuration not stated) this time NO

# repeat for Cc1ccc(C)c(CN2C(=O)c3ccccc3S(=O)c3ccc(C(=O)N4CCOCC4)cc32)c1 (configuration not stated) NO

What about this molecule? O=C(Nc1ccc(-c2nnc(-c3ccccc3)o2)cc1)C1CCCO1 (configuration not stated) YES

Try this molecule next: CCOc1ccc(NC(=S)N2CCC(NC(=O)c3ccccc3)CC2)cc1 NO

Subsequent entry: CSCCC(NC(=O)c1ccco1)C(=O)OCC(=O)Nc1ncc(Cl)c(C)c1Cl (configuration not stated) NO

Moving on to the next molecule: COc1cccc(CNC(=O)C(NS(=O)(=O)c2ccc3nc(C)sc3c2)C(C)C)c1 (configuration not stated) NO

What do we get for CCN(CCCNC(=O)c1cc2c(=O)n(CC)c3ccccc3c2s1)Cc1ccccc1 ? NO

The reported numbers originate from PubChem BioAssay AID588342.
